experimental system: PDE1C (Homo sapiens (Human))
experimental details: PDE1 inhibition assay, PDE1C
Assay type: biochemical
condition description: read-out: PDE1C, % inhibition (at 1 μM)
measurement label: inhibition at 1 µM (%)

Below, 2 molecules whose answers are already recorded.
molecule | measurement label | numeric result
Cc1cn2c(C3CCOCC3)ncc2c(=O)n1Cc1ccc(N)cc1 [Example 52] | inhibition at 1 µM | 10
CC(=O)Nc1ccc(Cn2c(C)cn3c(C4CCOCC4)ncc3c2=O)cc1 [Example 47] | inhibition at 1 µM | 10

1: Cc1cn2c(C3CCOCC3)ncc2c(=O)n1Cc1ccc(C#N)cc1 [Example 46]
2: COc1cc(Cn2c(C)cn3c(C4CCOCC4)ncc3c2=O)ccc1Cl [Example 48]
3: Cc1cn2c(C3CCOCC3)ncc2c(=O)n1Cc1ccc(OCC2CC2)cc1 [Example 42]
Data request: Would you mind ranking these molecules by ascending inhibition at 1 µM? Reply with the item labels sorted in the order that was asked for.
Data returned: 1, 2, 3

* * *

experimental system: PDE1C (Homo sapiens (Human), UniProt Q14123)
Sequence (Q14123 whole entry): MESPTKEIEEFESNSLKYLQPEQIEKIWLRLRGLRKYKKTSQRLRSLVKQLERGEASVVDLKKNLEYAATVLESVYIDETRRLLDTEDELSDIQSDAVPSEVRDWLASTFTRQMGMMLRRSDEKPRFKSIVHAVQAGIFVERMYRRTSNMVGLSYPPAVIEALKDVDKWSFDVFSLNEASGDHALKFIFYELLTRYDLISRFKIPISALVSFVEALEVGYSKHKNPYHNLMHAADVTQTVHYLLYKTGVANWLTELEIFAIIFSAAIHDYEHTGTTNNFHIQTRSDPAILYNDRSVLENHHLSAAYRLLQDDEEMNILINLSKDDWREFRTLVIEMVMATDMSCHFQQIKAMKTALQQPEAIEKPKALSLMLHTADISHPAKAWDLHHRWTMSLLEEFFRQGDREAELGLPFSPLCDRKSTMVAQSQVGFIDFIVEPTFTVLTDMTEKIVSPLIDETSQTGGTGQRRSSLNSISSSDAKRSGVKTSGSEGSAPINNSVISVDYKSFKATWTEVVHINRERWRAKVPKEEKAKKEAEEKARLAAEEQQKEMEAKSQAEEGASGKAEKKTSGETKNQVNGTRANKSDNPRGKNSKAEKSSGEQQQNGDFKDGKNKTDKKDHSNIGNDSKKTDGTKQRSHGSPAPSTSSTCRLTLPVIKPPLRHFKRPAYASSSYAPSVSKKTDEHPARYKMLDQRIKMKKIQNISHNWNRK
experimental details: PDE1 inhibition assay, PDE1C
Type: biochemical
condition description: 15 nM tritium labelled cAMP
pIC50: −log10 of the molar value.
measurement label: pIC50

A: Cc1cn2c(C3CC3(F)F)ncc2c(=O)n1Cc1cccc(F)c1 (centres unmarked)
B: Cc1cn2c(C3(C)CCOC3)ncc2c(=O)n1Cc1cccc(F)c1 (single isomer, unassigned; isomer 2) [32, isomer 2]
Data request: Decide: A or B , by lowest recorded pIC50. Give the chosen item's label as your response.
Data returned: A

* * *

experimental system: UniProt O76083
Sequence (O76083 whole entry): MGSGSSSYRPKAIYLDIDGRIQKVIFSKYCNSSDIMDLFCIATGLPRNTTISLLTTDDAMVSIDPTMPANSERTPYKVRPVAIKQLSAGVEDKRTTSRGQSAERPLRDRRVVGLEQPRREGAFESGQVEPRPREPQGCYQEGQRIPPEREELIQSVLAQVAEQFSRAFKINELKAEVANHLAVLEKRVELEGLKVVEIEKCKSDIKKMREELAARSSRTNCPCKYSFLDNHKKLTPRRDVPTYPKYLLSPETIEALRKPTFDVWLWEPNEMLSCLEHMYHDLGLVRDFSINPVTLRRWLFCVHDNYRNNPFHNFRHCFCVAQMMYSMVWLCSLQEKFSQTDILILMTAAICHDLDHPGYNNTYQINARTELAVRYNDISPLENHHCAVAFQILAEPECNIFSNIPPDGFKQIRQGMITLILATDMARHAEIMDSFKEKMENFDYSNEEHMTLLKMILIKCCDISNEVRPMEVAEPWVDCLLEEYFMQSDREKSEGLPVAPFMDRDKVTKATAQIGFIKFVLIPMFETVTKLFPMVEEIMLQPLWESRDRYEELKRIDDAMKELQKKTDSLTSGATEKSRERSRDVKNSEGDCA
experimental details: PDE9 inhibition assay
Format: biochemical
Protocol: A PDE9 assay may for example, be performed as follows: The assay is performed in 60 μL samples containing a fixed amount of the relevant PDE enzyme (sufficient to convert 20-25% of the cyclic nucleotide substrate), a buffer (50 mM HEPES7.6; 10 mM MgCl2; 0.02% Tween20), 0.1 mg/ml BSA, 225 pCi of ^3H-labelled cyclic nucleotide substrate, tritium labeled cAMP to a final concentration of 5 nM and varying amounts of inhibitors. […]
measurement label: inhibition at 10 µM (%)

molecule | endpoint unit | numeric result
Cc1cn2c(C3CCOCC3)ncc2c(=O)n1Cc1ccc(OC(F)(F)F)cc1 | % | -22
COc1ccc(Cn2c(C)cn3c(N4CCCOCC4)ncc3c2=O)cc1 | % | -8
CCc1ccccc1Cn1c(C)cn2c(C3CCOCC3)ncc2c1=O | % | 1
CCCc1ncc2c(=O)n(CC3CCCCC3)c(C)cn12 | % | 7
Cc1cccc(Cn2c(C)cn3c(C4CCOCC4)ncc3c2=O)c1 | % | -42

A: Cc1cn2c(C3CCOCC3)ncc2c(=O)n1CC1CCCC1
B: Cc1cn2c(C3CCOCC3)ncc2c(=O)n1Cc1ccc(OC2CC2)cc1
C: COc1ccc(Cn2c(C)cn3c(C4CCOCC4C)ncc3c2=O)cc1 (stereo not drawn)
Data request: With regard to inhibition at 10 µM, arrange the entries in ascending order, please. I would appreciate it if you listed the labels in the requested order.
Data returned: A, C, B

I: Cc1cn2c(C3CCOCC3)ncc2c(=O)n1Cc1ccc(N)cc1
II: Cc1cn2c(C3CCOCC3)ncc2c(=O)n1Cc1ccc(C#N)cc1
Data request: # query: argmin of inhibition at 10 µM over I and II Lab log: write the label of the selected item as the result.
Data returned: I
(I: -3%, II: 14%)

I: COc1ccc(Cn2c(CC3CCCC3)cn3c(C4CCOCC4)ncc3c2=O)cc1
II: O=c1c2cnc(C3CC3)n2ccn1CC1CCCCC1
Data request: Just tell me: smaller inhibition at 10 µM value, I or II ? # answer = label of selected item
Data returned: II

a: COC1(c2ncc3c(=O)n(Cc4cccc(F)c4)c(C)cn23)CCOCC1
b: Cc1ccccc1Cn1c(C)cn2c(C3CCOCC3)ncc2c1=O
Data request: Higher inhibition at 10 µM: a or b ? // respond with label for picked entry
Data returned: a
(a: 13%, b: -14%)
